The measurements presented in this section are drawn from BindingDB's records for doi:10.1021/jm00167a014.

# Tested target: Peroxisomal N(1)-acetyl-spermine/spermidine oxidase (Rattus norvegicus)
# Assay text: Tested for in vitro binding affinity against polyamine oxidase after intraperitoneal administration in the rat liver
Assay readout: Ki (nM)
Respond numerically; units are nM and should not be typed.

{"Sample smiles": "C=C=CCNCCCNCCCCCCCCNCCCNCC=C=C", "Tested target": "Peroxisomal N(1)-acetyl-spermine/spermidine oxidase (Rattus norvegicus)", "Ki, nM": 2500}

Which value of Ki has been reported for `C=C=CCNCCCNCCCNCC=C=C` in the records?
3000
